- assaySystem: PKR R532W (Homo sapiens, UniProt P30613, R532W)
- assayComment: PKR R532W Single Point Percent Activation Assay
- Format: biochemical
- measurementContext: compound at 1 μM; read-out: % Act. R532W
Exercise: state measured activation at 1 µM for each of the molecules provided.

- COc1cc(NS(=O)(=O)c2cccc3cccnc23)ccc1C(=O)N1CC(C)(O)C1: 1 to 100%
- COc1ccccc1OC1CN(C(=O)c2ccc(NS(=O)(=O)c3cccc4cccnc34)cc2OC)C1: 101 to 500%
- Cc1cc(C(=O)N2CC(Nc3ccccn3)C2)ccc1NS(=O)(=O)c1cccc2cccnc12 [drawing 55]: 1 to 100%

Batch lookup, activation at 1 µM per entry.
1. Cc1cc(C(=O)N2CC(O)C2)ccc1NS(=O)(=O)c1cccc2cccnc12
2. COc1cc(NS(=O)(=O)c2cccc3cccnc23)ccc1C(=O)N1CC(OC(=O)Nc2ccccn2)C1
3. Cc1cc(C(=O)N2CC(OC(=O)Nc3ccccn3)C2)ccc1NS(=O)(=O)c1cccc2cccnc12
4. O=C(c1ccc(S(=O)(=O)Nc2cccc3cccnc23)cc1)N1CC(OCc2ccccc2)C1

*A*
1. 101 to 500%
2. 101 to 500%
3. 101 to 500%
4. 1 to 100%

Batch lookup, activation at 1 µM per entry.
1. Cc1cc(C(=O)N2CC(NC(=O)c3ccccn3)C2)ccc1NS(=O)(=O)c1cccc2cccnc12 [drawing 7]
2. CC1(O)CN(C(=O)c2ccc(NS(=O)(=O)c3cccc4cccnc34)cc2)C1

*A*
1. 1 to 100%
2. 1 to 100%

###

- assaySystem: wild type PKR (Homo sapiens, UniProt P30613)
- Sequence (P30613 whole entry): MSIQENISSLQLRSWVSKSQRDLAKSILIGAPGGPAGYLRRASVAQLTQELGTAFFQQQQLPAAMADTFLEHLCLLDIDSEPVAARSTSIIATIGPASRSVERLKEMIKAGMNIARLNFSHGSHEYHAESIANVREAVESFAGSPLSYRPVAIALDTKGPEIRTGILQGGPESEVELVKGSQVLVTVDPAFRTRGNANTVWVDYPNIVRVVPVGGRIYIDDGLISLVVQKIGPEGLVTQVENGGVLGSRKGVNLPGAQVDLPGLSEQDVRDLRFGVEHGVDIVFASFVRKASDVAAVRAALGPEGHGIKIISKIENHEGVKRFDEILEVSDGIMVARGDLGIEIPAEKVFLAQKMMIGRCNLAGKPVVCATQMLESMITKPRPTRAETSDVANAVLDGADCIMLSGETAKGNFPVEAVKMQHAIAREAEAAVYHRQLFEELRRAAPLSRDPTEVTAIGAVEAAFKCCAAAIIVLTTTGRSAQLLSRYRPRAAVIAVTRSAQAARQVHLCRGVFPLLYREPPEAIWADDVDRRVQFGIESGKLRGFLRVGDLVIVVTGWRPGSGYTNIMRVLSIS
- assayComment: PKR assay, AC50 (wild type)
- Assay type: biochemical
- measurementContext: read-out: PKR WT AC50
quantityMeasured: AC50

• O=C(c1ccc(NS(=O)(=O)c2cccc3cccnc23)cc1)N1CC(OCc2ccccc2)C1 [drawing 12] = 101 to 500 nM
• COc1ccccc1OC1CN(C(=O)c2ccc(NS(=O)(=O)c3cccc4cccnc34)c(C)c2)C1 [drawing 63] = < 100 nM
• Cc1cc(C(=O)N2CC(Oc3ccccc3)C2)ccc1NS(=O)(=O)c1cccc2cccnc12 [drawing 10] = < 100 nM
• O=C(c1ccc(NS(=O)(=O)c2cccc3cccnc23)c(F)c1)N1CC(Nc2ccccc2)C1 [drawing 22] = > 500 nM
• O=C(c1ccc(NS(=O)(=O)c2cccc3cccnc23)cc1)N1CC(Oc2ccccc2)C1 [drawing 4] = 101 to 500 nM
• O=C(NC1CN(C(=O)c2ccc(NS(=O)(=O)c3cccc4cccnc34)cc2)C1)c1ccccn1 [drawing 15] = > 500 nM
• O=C(c1ccc(NS(=O)(=O)c2cccc3cccnc23)cc1)N1CC(O)(Cc2ccccc2)C1 [drawing 5] = < 100 nM
• O=C(c1ccc(NS(=O)(=O)c2cccc3cccnc23)cc1)N1CC(O)(c2ccccc2)C1 [drawing 40] = 101 to 500 nM

We now examine a further molecule.
*Q* Provide the documented AC50 with wild type PKR (Homo sapiens, UniProt P30613) as the system for Cc1cc(C(=O)N2CC(NC(=O)c3ccccn3)C2)ccc1NS(=O)(=O)c1cccc2cccnc12 [drawing 7]
*A* 101 to 500 nM

###

- assaySystem: PKR wt (Homo sapiens, UniProt P30613)
- Sequence (P30613 whole entry): as above
- assayComment: PKR WT Single Point Percent Activation Assay
- Assay type: biochemical
- measurementContext: compound at 1 μM
quantityMeasured: activation at 1 µM

Here is how some molecules turned out for activation at 1 µM.
* COc1cc(NS(=O)(=O)c2cccc3cccnc23)ccc1C(=O)N1CC(O)C1 | 101 to 500%
* O=C(c1ccc(NS(=O)(=O)c2cccc3cccnc23)cc1)N1CC(OCc2ccccc2)C1 [drawing 12] | 101 to 500%
* CC1(O)CN(C(=O)c2ccc(NS(=O)(=O)c3cccc4cccnc34)cc2)C1 | 101 to 500%
* COc1ccncc1NC1CN(C(=O)c2ccc(NS(=O)(=O)c3cccc4cccnc34)c(C)c2)C1 | 101 to 500%

Batch lookup, activation at 1 µM per entry.
1. O=C(OC1CN(C(=O)c2ccc(NS(=O)(=O)c3cccc4cccnc34)c(F)c2)C1)c1ccccn1
2. COc1cc(C(=O)N2CC(OC(=O)Nc3ccccn3)C2)ccc1NS(=O)(=O)c1cccc2cccnc12

*A*
1: 101 to 500%; 2: 1 to 100%

###

- assaySystem: PKR R510Q (Homo sapiens, UniProt P30613, R510Q)
- Sequence (P30613 whole entry R510Q): as the sequence (P30613 whole entry) above, with R510Q counted along it
- assayComment: PKR R510Q Single Point Percent Activation Assay
- Type: biochemical
- measurementContext: compound at 1 μM; read-out: % Act. R510Q
quantityMeasured: activation at 1 µM

* COc1ccncc1NC1CN(C(=O)c2ccc(NS(=O)(=O)c3cccc4cccnc34)c(C)c2)C1 | 1 to 100%
* COc1cc(NS(=O)(=O)c2cccc3cccnc23)ccc1C(=O)N1CC(O)(Cc2ccccc2)C1 | 101 to 500%
* Cc1cc(C(=O)N2CC(Oc3ccccc3)C2)ccc1NS(=O)(=O)c1cccc2cccnc12 [drawing 10] | 101 to 500%
* COc1ccccc1N(C)C1CN(C(=O)c2ccc(NS(=O)(=O)c3cccc4cccnc34)cc2)C1 [drawing 21] | 101 to 500%
* O=C(OC1CN(C(=O)c2ccc(NS(=O)(=O)c3cccc4cccnc34)cc2)C1)c1ccccn1 | 101 to 500%

Batch lookup, activation at 1 µM per entry.
1. O=C(c1ccc(NS(=O)(=O)c2cccc3cccnc23)cc1)N1CC(OCc2ccccc2)C1 [drawing 12]
2. CN(Cc1ccccc1)C1CN(C(=O)c2ccc(NS(=O)(=O)c3cccc4cccnc34)cc2)C1
3. COc1ccccc1OC1CN(C(=O)c2ccc(NS(=O)(=O)c3cccc4cccnc34)c(F)c2)C1
4. Cc1cc(C(=O)N2CC(OC(=O)c3ccccn3)C2)ccc1NS(=O)(=O)c1cccc2cccnc12
5. O=C(NC1CN(C(=O)c2ccc(NS(=O)(=O)c3cccc4cccnc34)c(F)c2)C1)c1ccccn1

*A*
101 to 500%
101 to 500%
1 to 100%
101 to 500%
101 to 500%

###

Exercise: state measured activation at 1 µM for each of the compounds provided.
- assaySystem: PKR R532W (Homo sapiens, UniProt P30613, R532W)
- assayComment: PKR R532W Single Point Percent Activation Assay
- Format: biochemical
- measurementContext: compound at 1 μM; read-out: % Act. R532W

Here is how some compounds turned out for activation at 1 µM.
- O=C(c1ccc(NS(=O)(=O)c2cccc3cccnc23)cc1)N1CC(O)(Cc2ccccc2)C1 [drawing 5]: 101 to 500%
- O=C(Nc1ccccn1)OC1CN(C(=O)c2ccc(NS(=O)(=O)c3cccc4cccnc34)c(F)c2)C1: 101 to 500%
- Cc1cc(C(=O)N2CC(NC(=O)NC(C)C)C2)ccc1NS(=O)(=O)c1cccc2cccnc12: 101 to 500%
- Cc1cc(C(=O)N2CC(O)(c3ccccc3)C2)ccc1NS(=O)(=O)c1cccc2cccnc12: 101 to 500%
- Cc1cc(C(=O)N2CC(OCc3ccccc3)C2)ccc1NS(=O)(=O)c1cccc2cccnc12: 1 to 100%

We now examine a further compound.
*Q* Would you kindly share the measured activation at 1 µM for COc1ccccc1OC1CN(C(=O)c2ccc(NS(=O)(=O)c3cccc4cccnc34)c(C)c2)C1 [drawing 63] ?
*A* 101 to 500%

###

- assaySystem: PKR wt (Homo sapiens, UniProt P30613)
- assayComment: PKR WT Single Point Percent Activation Assay
- Type: biochemical
- measurementContext: compound at 1 μM
quantityMeasured: activation at 1 µM

Batch lookup, activation at 1 µM per entry.
1. CC1(O)CN(C(=O)c2ccc(NS(=O)(=O)c3cccc4cccnc34)c(F)c2)C1
2. COc1ccccc1NC1CN(C(=O)c2ccc(NS(=O)(=O)c3cccc4cccnc34)c(F)c2)C1
3. Cc1cc(C(=O)N2CC(NC(=O)NC(C)C)C2)ccc1NS(=O)(=O)c1cccc2cccnc12
4. COc1cc(C(=O)N2CC(Oc3ccccc3OC)C2)ccc1NS(=O)(=O)c1cccc2cccnc12

*A*
["101 to 500%", "1 to 100%", "101 to 500%", "101 to 500%"]
